Measurement Description: yeast display, Sf9 membrane polyspecificity reagent, FACS + sequencing; frameworks hold sequencing errors
Quantity: polyreactivity (PSR sort gate)

[[record]]
item_sequence = "QVQLVESGGGLVQAGGSLRLSCAASGSTFDNYAMGWYRQAPGKERELVAAINSRGGRTYYADSVKGRFTISRDNAKNTVYLQMNSLKPEDTAVYYCAAVGATHRFDYWGQGTQVTVSS"
reported = "high polyreactivity"

[[record]]
item_sequence = "QVQLVESGGGLVQAGGSLRLSCAASGITFPQYAMGWYRQAPGKERELVAAITSGGSTNYADSVKGRFTISRDNGKNTVYLQMNSLKPEDTGVYYCNTAGYYWLHYTMDYWGQGTQVTVSS"
reported = "high polyreactivity"

[[record]]
item_sequence = "QFQLVDSGRGLVQAGGSLRLSCAASGRTFPHYAMGWYRQAPGKERELVAAISSRGGSTYYADSVKGRFTISRDNVKNTVYLQMNSLKPEDTAVYYCAATVGLYRSREYGYWGQGTQVTVSS"
reported = "low polyreactivity"

[[record]]
item_sequence = "QVQLVESGGGLVQAGGSLRLSCAASGITFYGNAMGWYRQAPGKERELVANTYYADSVKGRFTISRDNAKNTVYLQMNSLKPEDTAVYYCNVLFADKSDYWGQGTQVTVSS"
reported = "low polyreactivity"


Here is another sequence to look at.
Prompt line: For `QVQLVESGGRLVQAGGSLRLSCAASGFTFVYYAMGWYRQAPGKERELVAAVSWSGGTTYYADSVKGRFTISRDNAKNTVLLQMNSLKPEDTAVYYCNVYPAYNYFDYDYWGQGTQVTVSS` , what is its reported polyreactivity (PSR sort gate)?
Response line: high polyreactivity

---

Measurement Description: yeast display, Sf9 membrane polyspecificity reagent, FACS + sequencing; frameworks hold sequencing errors
Quantity: polyreactivity (PSR sort gate)

[[record]]
item_sequence = "QVQLVESGGGLVQARGSLRLSCAASGLIFYGNAMGWYRQAPGKERELVAAISRRGGRTYYADSVKGRFTISRDNAKNTVYLQMNSLKPEDTAVYYCAKRYKSIPRYWSKEYDYWGQGTQVTVSS"
reported = "high polyreactivity"

[[record]]
item_sequence = "QVQLVESGGGLVQAGGSLRLSCAASGSTFTPNVMGWNRQAPGKEREYVAAINSSGGSTFYADSVKGRFTISRDTAKYTVYLQMNSLKPEDTAFYYCAASWHTPTFYDEYYYWGQGTQVTVSS"
reported = "low polyreactivity"

[[record]]
item_sequence = "QVQLVESGGGLVHAGGSLRLSCAASGSTFYENAMGWYRQAPGKERELVAAITWSGGRTYYADSVKGRFTISRDNAKNTVYLQMNSLKPEDTAVYYCAAGLFVGFDYWGQGTQVTVSS"
reported = "high polyreactivity"

[[record]]
item_sequence = "QVQLVESGGGLVQAGGSLRLSCAASGSIFRRNTMGWSRQATGKERELVAAITYRGGSTYYADSVKGRFTISRDNAKNTDYLQMNSLKPEESAVYYCARYLWYYRVSKSDSWGQGTQVTVSS"
reported = "high polyreactivity"


Here is another sequence to look at.
Prompt line: For `QVQLVESGGGVVQAGGSLRISGAASGSIFPFNAMVWYRQAPGKERELVAAIRRSGGSTYYADSVQGRFTISRYNAKNTVDLQMNSLKPEATAVYYCATDPEWPLPAYYYWGQGTQVTVSS` , what is its reported polyreactivity (PSR sort gate)?
Response line: low polyreactivity
